target: human aldose reductase (ALR2) (Homo sapiens, UniProt P15121); construct: hexa-His (cleaved yes); made in house; host or cells: E. coli BL-21(DE3); experiment: Fluorescence quenching dissociation constants with aldose reductase; format: binding; settings: without quercetin; read-out: Kd of glyceraldehyde with aldose reductase
pKd: −log10 of the molar value.
MEASURED_ENDPOINT: pKd

{"columns": ["MOLECULE", "MEASURED_ENDPOINT", "READING"],
 "data": [
  ["O=CC(O)CO (stereo not shown)", "pKd", 3.29]
]}

----------
target: human aldose reductase (ALR2) (Homo sapiens); construct: hexa-His (cleaved yes); made in house; host or cells: E. coli BL-21(DE3); test: Fluorescence quenching dissociation constants with aldose reductase; type: binding; details: binary complex; read-out: Ki with ALR2
MEASURED_ENDPOINT: Ki (µM)

{"columns": ["MOLECULE", "ASSAY_SYSTEM", "MEASURED_ENDPOINT", "READING"],
 "data": [
  ["O=CC(O)CO (centres unmarked) [Glyceraldehyde, glyceraldehyde]", "human aldose reductase (ALR2) (Homo sapiens)", "Ki", 510],
  ["O=CC1CCCCC1 [1-Cyclohexylaldehyde]", "human aldose reductase (ALR2) (Homo sapiens)", "Ki", 330]
]}

Cited source for all entries: patent US20080161247A1
